- Tested on: HCC1569
- assay.method.text: cell number relative to DMSO (% of DMSO); higher = more cells (less growth inhibition / toxicity);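 note: TDF denotes transformed human dermal fibroblasts of mesenchymal origin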
- condition.summary: concentration: 10 µM; 24 h
readout: cell number

{"molecule": "COC(=O)C1=C(C#N)NC(C)=C(C(=O)OC(C)C)C1c1cccc([N+](=O)[O-])c1 (configuration not stated)", "recorded.result": 89.8}
{"molecule": "O=C1NC(=O)C(=Cc2ccc3nccnc3c2)S1", "recorded.result": 103}
{"molecule": "Cc1cn(-c2cc(NC(=O)c3ccc(C)c(Nc4nccc(-c5cccnc5)n4)c3)cc(C(F)(F)F)c2)cn1", "recorded.result": 100}
{"molecule": "O=C1Cc2c([nH]c3ccc(Br)cc23)-c2ccccc2N1 [Kenpaullone]", "recorded.result": 76.3}
{"molecule": "Nc1ccn(C2CCC(CO)O2)c(=O)n1 (configuration not stated) [2',3'-dideoxycytidine]", "recorded.result": 99.7}
{"molecule": "COc1cc2c(CCNC(C)=O)c[nH]c2cc1O [6-Hydroxymelatonin]", "recorded.result": 100}
{"molecule": "O=C1c2ccccc2-c2n[nH]c3cccc1c23", "recorded.result": 91.4}
{"molecule": "O=C(NC(Cc1cc(=O)[nH]c2ccccc12)C(=O)O)c1ccc(Cl)cc1 (configuration not stated) [Rebamipide]", "recorded.result": 104}
{"molecule": "N#CC(=Cc1c[nH]c2ccccc12)C(=O)c1ccc(O)c(O)c1", "recorded.result": 93.1}
{"molecule": "O=C(O)CCC(C(=O)O)N1C(=O)c2ccccc2C1=O (configuration not stated)", "recorded.result": 101}
{"molecule": "O=C1c2ccccc2-c2nc3nnnn3nc21", "recorded.result": 41.8}
{"molecule": "CS(=O)(=O)O.Cn1cc(C(F)(F)F)nc1-c1ccc(OCC(O)CNCCOc2ccc(O)c(C(N)=O)c2)cc1 (configuration not stated)", "recorded.result": 97.2}
{"molecule": "CC1C(=O)OC2CC34C5CC(C(C)(C)C)C36C(OC(=O)C6O)OC4(C(=O)O5)C21O (configuration not stated) [Ginkgolide A]", "recorded.result": 99.6}
{"molecule": "CCN(CC)CCCCN1c2ccccc2Oc2ccc(Cl)cc21.Cl", "recorded.result": 83}
{"molecule": "COc1cc(Oc2ccnc3cc(OC)c(OC)cc23)ccc1NC(=O)NC(C)c1nccs1 (configuration not stated)", "recorded.result": 68.5}
{"molecule": "NC(CCC(=O)NC(CS)C(=O)NCC(=O)O)C(=O)O (configuration not stated)", "recorded.result": 101}
{"molecule": "Cn1ccnc1", "recorded.result": 103}

* * *

- Test system: TDF
- assay.method.text: cell number relative to DMSO (% of DMSO); higher = more cells (less growth inhibition / toxicity)
- condition.summary: concentration: 10 µM; 24 h
Outcome label depends on cell number relative to 100: at/above gives 1 (yes), below gives 0 (no).

{"molecule": "CC(C)NCC(O)c1cc(O)cc(O)c1.CC(C)NCC(O)c1cc(O)cc(O)c1.O=S(=O)(O)O (configuration not stated) [Metaproterenol hemisulfate]", "assay.system": "TDF", "category": "1 (yes)"}
{"molecule": "Nc1ncnc2c1nc(Sc1ccc(Cl)cc1)n2C1OC2COP(=O)([O-])OC2C1O.[Na+] (configuration not stated) [8-(4-Chlorophenylthio)-cAMP sodium]", "assay.system": "TDF", "category": "1 (yes)"}
{"molecule": "CN(Cc1ccc(C(C)(C)C)cc1)Cc1cccc2ccccc12", "assay.system": "TDF", "category": "0 (no)"}
{"molecule": "CC(CN1c2ccccc2Sc2ccccc21)N(C)C.Cl (configuration not stated) [Promethazine hydrochloride]", "assay.system": "TDF", "category": "0 (no)"}
{"molecule": "O=C1Cc2c([nH]c3ccc([N+](=O)[O-])cc23)-c2ccccc2N1", "assay.system": "TDF", "category": "0 (no)"}
{"molecule": "OC1c2ccccc2N=C2CCCN21 (configuration not stated)", "assay.system": "TDF", "category": "0 (no)"}
{"molecule": "CC12CCC3c4ccc(O)cc4CCC3C1CCC2O (stereo not drawn) [beta-Estradiol]", "assay.system": "TDF", "category": "0 (no)"}
{"molecule": "COS(=O)(=O)[O-].C[n+]1c2ccccc2nc2ccccc21 [5-methylphenazin-5-ium methyl sulfate]", "assay.system": "TDF", "category": "0 (no)"}
{"molecule": "Nc1ncnc2c1C(=O)N(c1ccc(C3CCC(CC(=O)O)CC3)cc1)CCO2 (configuration not stated)", "assay.system": "TDF", "category": "0 (no)"}
{"molecule": "O=C(Nc1ccccc1C(=O)Nc1ccc(CCO)cc1)c1ccc([N+](=O)[O-])cc1 [N-(4-(2-hydroxyethyl)phenyl)-2-(4-nitrobenzamido)benzamide]", "assay.system": "TDF", "category": "0 (no)"}
{"molecule": "CC(C)C(N)C(=O)OCCOCn1cnc2c(=O)nc(N)[nH]c21 (configuration not stated)", "assay.system": "TDF", "category": "1 (yes)"}
{"molecule": "N[C@@H](Cc1ccc(O)c(I)c1)C(=O)O", "assay.system": "TDF", "category": "1 (yes)"}
{"molecule": "CCCn1c(=O)c2[nH]c(-c3ccc(S(=O)(=O)O)cc3)nc2n(CCC)c1=O", "assay.system": "TDF", "category": "1 (yes)"}

The reported measurements were obtained from the supplement of paper PMC7156485.
